B1: RAB11A (parent)
chain: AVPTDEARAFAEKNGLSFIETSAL

Variants of: B1
protocol_details: protein stability index of a GFP-peptide fusion (GPS, HEK-293T) (PSI 1-6); higher = more stable;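 further: lentivirally expressed fusions sorted by FACS into six bins by GFP to DsRed ratio, PSI derived from sequencing read proportions per bin multiplied by bin number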
conditions: c terminus: a fixed tail appended
outcome_measure: protein stability index
API doc: respond with a numeric literal and nothing else, no unit.

# protein stability index (variant: E6A ) is 1.94

# protein stability index (variant: E6H ) is 1.87

# protein stability index (variant: T21I ) is 1.8

# protein stability index (variant: R8Q ) is 2.66

# protein stability index (variant: E12R ) is 2.55

# protein stability index (variant: E12D ) is 2.54

# protein stability index (variant: A23K ) is 2.42

# protein stability index (variant: A11G ) is 1.97

# protein stability index (variant: L16R ) is 3.8

# protein stability index (variant: A23P ) is 2.82

# protein stability index (variant: S22R ) is 2.25

# protein stability index (variant: L24D ) is 4.79

# protein stability index (variant: F10P ) is 2.31

# protein stability index (variant: S17Q ) is 4.02

# protein stability index (variant: F18D ) is 5.03

# protein stability index (variant: A23G ) is 3.49

# protein stability index (variant: F10H ) is 2.54

# protein stability index (variant: S22F ) is 2.27

# protein stability index (variant: K13R ) is 2.52

# protein stability index (variant: F10V ) is 2.46

# protein stability index (variant: E12N ) is 2.41

# protein stability index (variant: S17H ) is 3.19
